These data points were gathered from patent US20210284618A1.

Biological target: CYP1A1 (Homo sapiens, UniProt P04798)
Construct: host or cells: yeast microsomes (Saccharosomes)
Sequence (P04798 whole entry): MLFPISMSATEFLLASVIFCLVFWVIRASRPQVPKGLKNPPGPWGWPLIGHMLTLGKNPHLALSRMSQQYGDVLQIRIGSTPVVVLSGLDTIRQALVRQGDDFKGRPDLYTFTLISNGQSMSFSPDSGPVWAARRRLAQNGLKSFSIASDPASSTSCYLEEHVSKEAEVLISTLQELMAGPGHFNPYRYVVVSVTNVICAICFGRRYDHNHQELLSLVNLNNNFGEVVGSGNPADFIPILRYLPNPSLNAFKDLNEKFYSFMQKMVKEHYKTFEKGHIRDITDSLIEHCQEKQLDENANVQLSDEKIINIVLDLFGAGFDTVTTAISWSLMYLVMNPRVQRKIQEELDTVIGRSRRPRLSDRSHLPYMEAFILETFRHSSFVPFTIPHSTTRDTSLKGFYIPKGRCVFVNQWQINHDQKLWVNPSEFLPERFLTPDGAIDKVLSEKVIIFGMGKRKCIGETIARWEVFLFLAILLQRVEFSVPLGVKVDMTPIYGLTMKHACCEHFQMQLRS
Test: In-vitro CYP450 1A1 enzyme inhibition in Saccharosomes
Assay type: biochemical
parameter.measured: IC50 (nM)
Numbers only, in nM.

compound	unit.descriptor	IC50
O=c1cc(-c2ccccc2)oc2c1ccc1ccccc12 [Alpha-naphthoflavone, reference compound]	nM	90

Consider the record given below.
(Q) Which value of IC50 has been reported for `COc1c(C(=O)/C=C/c2cccnc2)c(O)c(OC)c2occc12` in the records?
(A) 342

----------
Biological target: CYP1A1 (Homo sapiens, UniProt P04798)
Construct: host or cells: yeast microsomes (Saccharosomes)
Test: In-vitro CYP450 1A1 enzyme inhibition in Saccharosomes
Assay type: biochemical
Conditions: 10 μM test compound, 5 μM ethoxyresorufin
Provide the recorded % inhibition of CYP1A1 in Saccharosomes at 10 μM for the entries that follow.
One number for each entry, in %.

// worked examples, % inhibition of CYP1A1 in Saccharosomes at 10 μM included
molecule	unit.descriptor	assay.value
COc1cc(OC)c(OC)cc1/C=C/C(=O)c1c(O)c(OC)c2occc2c1OC [Compound 18]	%	92.2
COc1c(C(=O)/C=C/c2ccc(F)c(Br)c2)c(O)c(OC)c2occc12 [Compound 5]	%	83.1
COc1c(C(=O)/C=C/c2ccc(Cl)cc2Cl)c(O)c(OC)c2occc12 [Compound 21]	%	80.2
COc1c2occc2c(OC)c2c(=O)cc(C)oc12 [Compound 1, Khellin, reference compound]	%	88.3

Let us examine a further case.
(Q) Requested field: % inhibition of CYP1A1 in Saccharosomes at 10 μM. Item: COc1c(C(=O)/C=C/c2ccsc2)c(O)c(OC)c2occc12 [Compound 20]
(A) 95.1
